System: DU-145
Assay: NCI tumour cell line growth inhibition, 48 h
Active and inactive are the calls of the source. Cut-off read from the data, not from the text of the source: active = GI50 up to about 1.1 µM and inactive = higher.
Possible outcomes: active, inactive

molecule	cat
C=C1C[C@@H]2CC[C@@]34CC5O[C@H]6C(O[C@H]7CC[C@H](CC(=O)O[C@@H]8[C@@H](C)[C@@H]9O[C@@H]%10C[C@]%11(C[C@@H]%12O[C@]%13(C[C@H](C)[C@@H]%14O[C@@H]%15CC(C(COC(C)=O)OC(C)=O)O[C@@H]%15C[C@@H]%14O%13)C[C@H](C)[C@@H]%12O%11)O[C@@H]%10C[C@@H]9O[C@H]8CC8O[C@@H](CC[C@@H]1O2)C[C@@H](C)C8(O)CO)O[C@@H]7[C@@H]6O3)[C@H]5O4 (stereo not given in full)	active
O=P(O)(O)c1ccccc1Oc1ccccc1	inactive
NNC(=O)c1ccccc1Nc1nc(-c2cccs2)nc2ccc(Br)cc12	inactive
CCCN(CCCCC(NC(C)=O)C(=O)NCc1ccccc1)C(=O)N(CCCl)N=O (stereo not given)	inactive
BrC(Br)=C1C(=C(Br)Br)C(Br)C1Br (stereo not given)	active
